This collection of values is drawn from paper PMC5554220.

Molecular target: human androgen receptor (hAR) (Homo sapiens, UniProt P10275, DEL79-80/DUP470-473/R9G)
Sequence (P10275 with tags, fused parts or gaps R9G/DEL79-80/DUP470-473): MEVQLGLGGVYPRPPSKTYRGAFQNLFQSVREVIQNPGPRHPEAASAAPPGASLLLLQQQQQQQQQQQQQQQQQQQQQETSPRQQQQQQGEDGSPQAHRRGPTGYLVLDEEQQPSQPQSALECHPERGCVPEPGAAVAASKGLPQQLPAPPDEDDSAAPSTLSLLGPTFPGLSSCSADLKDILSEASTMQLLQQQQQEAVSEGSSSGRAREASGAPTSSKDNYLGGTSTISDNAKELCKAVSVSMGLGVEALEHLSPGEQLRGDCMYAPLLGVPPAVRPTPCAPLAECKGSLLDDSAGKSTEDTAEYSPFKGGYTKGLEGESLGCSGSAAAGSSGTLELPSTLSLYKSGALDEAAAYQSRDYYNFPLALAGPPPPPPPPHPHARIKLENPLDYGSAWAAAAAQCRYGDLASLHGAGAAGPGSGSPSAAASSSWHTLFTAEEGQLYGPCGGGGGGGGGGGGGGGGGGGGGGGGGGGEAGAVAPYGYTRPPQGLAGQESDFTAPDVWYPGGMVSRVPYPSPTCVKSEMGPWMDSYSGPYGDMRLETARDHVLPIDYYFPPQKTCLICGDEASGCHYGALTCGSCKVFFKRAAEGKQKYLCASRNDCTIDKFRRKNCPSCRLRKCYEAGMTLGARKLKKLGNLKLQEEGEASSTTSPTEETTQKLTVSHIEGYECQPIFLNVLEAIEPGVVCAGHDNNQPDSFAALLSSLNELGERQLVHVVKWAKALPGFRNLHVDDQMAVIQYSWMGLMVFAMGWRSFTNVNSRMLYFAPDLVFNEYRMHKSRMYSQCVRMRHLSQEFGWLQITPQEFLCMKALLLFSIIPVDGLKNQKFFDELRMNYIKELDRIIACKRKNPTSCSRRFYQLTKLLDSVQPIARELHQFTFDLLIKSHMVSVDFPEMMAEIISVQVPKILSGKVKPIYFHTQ
Test: Radioligand binding, [3H]mibolerone, hAR expressed in Sf9
Details: hAR expressed in Sf9; [3H]mibolerone 0.3 nM; read-out: Mean Ki ± SEM hAR
MEASURED PROPERTY: pKi
Conceptually, pKi converts a concentration in mol/L into minus its log10.

Prompt line: State, in one line, measured pKi of O=c1[nH]c2ccc(/C=C3\c4ccc(F)cc4COc4cc(F)ccc43)cc2[nH]1 [Ly]
Response line: 6.49

###

target: human mineralocorticoid receptor (hMR) (Homo sapiens); construct: made in house; host or cells: Sf9 insect cells (baculovirus); test: Radioligand binding, [3H]aldosterone, hMR Sf9 lysate, vacuum filtration; conditions: hMR expressed in Sf9; [3H]aldosterone 0.5 nM; read-out: Mean Ki ± SEM hMR
Sequence (P08235 whole entry): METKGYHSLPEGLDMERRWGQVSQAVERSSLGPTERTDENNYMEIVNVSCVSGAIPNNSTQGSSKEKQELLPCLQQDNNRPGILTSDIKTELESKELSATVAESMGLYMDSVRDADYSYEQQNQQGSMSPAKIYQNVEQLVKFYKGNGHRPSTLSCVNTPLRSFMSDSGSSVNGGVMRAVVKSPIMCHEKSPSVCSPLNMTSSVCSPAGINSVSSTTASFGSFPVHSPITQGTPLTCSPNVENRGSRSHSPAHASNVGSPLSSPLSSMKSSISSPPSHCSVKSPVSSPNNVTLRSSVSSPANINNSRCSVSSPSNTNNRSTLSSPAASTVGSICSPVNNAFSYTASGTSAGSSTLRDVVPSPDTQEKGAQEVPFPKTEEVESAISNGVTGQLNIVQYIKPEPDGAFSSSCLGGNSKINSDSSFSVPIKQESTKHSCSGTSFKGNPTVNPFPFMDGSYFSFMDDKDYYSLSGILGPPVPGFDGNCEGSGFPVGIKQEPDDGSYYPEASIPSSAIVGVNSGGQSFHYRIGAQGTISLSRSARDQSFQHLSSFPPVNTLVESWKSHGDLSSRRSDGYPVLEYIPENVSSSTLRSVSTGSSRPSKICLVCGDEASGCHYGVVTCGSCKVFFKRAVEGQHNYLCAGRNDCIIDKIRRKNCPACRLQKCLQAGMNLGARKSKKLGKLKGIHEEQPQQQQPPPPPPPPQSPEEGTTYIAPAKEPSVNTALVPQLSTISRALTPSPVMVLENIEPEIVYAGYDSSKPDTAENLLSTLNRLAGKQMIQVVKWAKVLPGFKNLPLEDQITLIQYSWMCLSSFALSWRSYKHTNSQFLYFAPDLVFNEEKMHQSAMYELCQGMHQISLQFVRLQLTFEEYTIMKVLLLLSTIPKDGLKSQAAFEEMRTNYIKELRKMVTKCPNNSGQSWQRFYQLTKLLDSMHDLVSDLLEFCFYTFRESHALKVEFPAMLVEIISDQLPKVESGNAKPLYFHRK
MEASURED PROPERTY: Ki (nM)
All answers are understood in nM, so give the number only.

Prompt line: State, in one line, measured Ki of `O=c1[nH]c2ccc(/C=C3\c4ccc(F)cc4COc4cc(F)ccc43)cc2[nH]1`
Response line: 1.6

###

Biological target: human progesterone receptor (hPR) (Homo sapiens)
Sequence (P06401 679-933 limits assumed): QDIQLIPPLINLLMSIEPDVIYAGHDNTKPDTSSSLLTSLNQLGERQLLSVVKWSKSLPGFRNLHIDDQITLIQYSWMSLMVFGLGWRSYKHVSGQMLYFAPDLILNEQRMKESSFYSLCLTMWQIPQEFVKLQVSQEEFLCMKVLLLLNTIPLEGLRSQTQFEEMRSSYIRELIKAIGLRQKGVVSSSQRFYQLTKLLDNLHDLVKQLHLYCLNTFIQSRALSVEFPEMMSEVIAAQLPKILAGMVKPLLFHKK
MEASURED PROPERTY: Ki (nM)
All answers are understood in nM, so give the number only.

Prompt line: State, in one line, measured Ki of O=c1[nH]c2ccc(/C=C3\c4ccc(F)cc4COc4cc(F)ccc43)cc2[nH]1 [Ly]
Response line: 92

###

Kindly supply the reported Ki values for the records listed here.
Biological target: human glucocorticoid receptor (hGR) (Homo sapiens, UniProt P04150)
Sequence (P04150 1-777): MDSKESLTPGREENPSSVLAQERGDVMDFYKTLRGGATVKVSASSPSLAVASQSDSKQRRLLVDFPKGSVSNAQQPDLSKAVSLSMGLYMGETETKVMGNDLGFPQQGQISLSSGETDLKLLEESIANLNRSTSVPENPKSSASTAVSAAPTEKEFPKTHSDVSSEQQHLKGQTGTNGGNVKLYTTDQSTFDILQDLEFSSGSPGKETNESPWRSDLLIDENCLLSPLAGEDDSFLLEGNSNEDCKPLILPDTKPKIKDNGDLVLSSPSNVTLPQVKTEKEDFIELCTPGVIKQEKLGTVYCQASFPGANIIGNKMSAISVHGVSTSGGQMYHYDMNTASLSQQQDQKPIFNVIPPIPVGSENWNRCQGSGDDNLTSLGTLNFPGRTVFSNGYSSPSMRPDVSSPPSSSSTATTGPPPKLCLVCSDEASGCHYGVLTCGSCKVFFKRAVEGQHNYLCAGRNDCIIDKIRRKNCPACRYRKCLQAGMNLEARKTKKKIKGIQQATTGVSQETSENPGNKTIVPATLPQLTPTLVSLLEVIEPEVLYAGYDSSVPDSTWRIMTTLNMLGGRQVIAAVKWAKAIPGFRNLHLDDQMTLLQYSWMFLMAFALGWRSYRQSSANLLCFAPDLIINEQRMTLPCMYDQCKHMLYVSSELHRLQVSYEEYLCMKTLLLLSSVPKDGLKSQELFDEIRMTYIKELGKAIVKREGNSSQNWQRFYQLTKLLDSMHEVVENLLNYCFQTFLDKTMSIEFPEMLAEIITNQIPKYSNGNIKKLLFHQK
All answers are understood in nM, so give the number only.

Prompt line: State, in one line, measured Ki of CC(=O)S[C@@H]1CC2=CC(=O)CC[C@]2(C)[C@H]2CC[C@@]3(C)[C@@H](CC[C@@]34CCC(=O)O4)[C@H]12 [Spironolactone, spironolactone, reference compound]
Response line: 33

Prompt line: State, in one line, measured Ki of O=c1[nH]c2ccc(/C=C3\c4ccc(F)cc4COc4cc(F)ccc43)cc2[nH]1 [Ly]
Response line: 112
